- Study target: Tyrosine--tRNA ligase (Escherichia coli (strain K12)) (UniProt P0AGJ9)
- Sequence (whole entry): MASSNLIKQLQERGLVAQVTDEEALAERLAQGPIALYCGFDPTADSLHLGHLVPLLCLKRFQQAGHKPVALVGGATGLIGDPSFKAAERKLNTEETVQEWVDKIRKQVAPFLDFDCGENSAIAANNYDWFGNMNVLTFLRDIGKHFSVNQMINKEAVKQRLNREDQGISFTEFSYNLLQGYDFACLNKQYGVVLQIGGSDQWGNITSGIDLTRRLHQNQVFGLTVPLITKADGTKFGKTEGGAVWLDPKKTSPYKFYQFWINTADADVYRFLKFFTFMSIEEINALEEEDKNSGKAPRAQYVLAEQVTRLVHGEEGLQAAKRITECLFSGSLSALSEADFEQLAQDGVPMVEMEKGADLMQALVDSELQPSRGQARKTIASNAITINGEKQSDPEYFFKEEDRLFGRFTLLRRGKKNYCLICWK
- Experimental protocol: Inhibition of tyrRS in Escherichia coli NCIB 8743 S30 extract assessed as aminoacylation at 250 nM incubated for 5 mins in presence of 14C-labeled tyrosine by liquid scintillation counting method relative to control
- Design: scale not given: the % may be the effect or the level left
Some compounds, each annotated with its measured Activity.

# Compound, Activity
measured = [
    ("Nc1ncnc2c1ncn2[C@@H]1O[C@H](COS(=O)(=O)NC(=O)[C@@H](N)Cc2ccc(O)cc2)[C@@H](O)[C@H]1O", "0.05 to 1.8%"),
    ("Cn1c(=O)ccn([C@@H]2O[C@H](COS(=O)(=O)NC(=O)[C@@H](N)Cc3ccc(O)cc3)[C@@H](O)[C@H]2O)c1=O", "37 to 62%"),
    ("N[C@@H](Cc1ccc(O)cc1)C(=O)NS(=O)(=O)OC[C@H]1O[C@@H](n2ccc(=O)[nH]c2=O)[C@H](O)[C@@H]1O", "37 to 62%"),
]
